Ref: ChEMBL document CHEMBL1133694

Measurement record for UniProtKB P12821; quantity recorded: IC50.
Sequence (P12821 whole entry): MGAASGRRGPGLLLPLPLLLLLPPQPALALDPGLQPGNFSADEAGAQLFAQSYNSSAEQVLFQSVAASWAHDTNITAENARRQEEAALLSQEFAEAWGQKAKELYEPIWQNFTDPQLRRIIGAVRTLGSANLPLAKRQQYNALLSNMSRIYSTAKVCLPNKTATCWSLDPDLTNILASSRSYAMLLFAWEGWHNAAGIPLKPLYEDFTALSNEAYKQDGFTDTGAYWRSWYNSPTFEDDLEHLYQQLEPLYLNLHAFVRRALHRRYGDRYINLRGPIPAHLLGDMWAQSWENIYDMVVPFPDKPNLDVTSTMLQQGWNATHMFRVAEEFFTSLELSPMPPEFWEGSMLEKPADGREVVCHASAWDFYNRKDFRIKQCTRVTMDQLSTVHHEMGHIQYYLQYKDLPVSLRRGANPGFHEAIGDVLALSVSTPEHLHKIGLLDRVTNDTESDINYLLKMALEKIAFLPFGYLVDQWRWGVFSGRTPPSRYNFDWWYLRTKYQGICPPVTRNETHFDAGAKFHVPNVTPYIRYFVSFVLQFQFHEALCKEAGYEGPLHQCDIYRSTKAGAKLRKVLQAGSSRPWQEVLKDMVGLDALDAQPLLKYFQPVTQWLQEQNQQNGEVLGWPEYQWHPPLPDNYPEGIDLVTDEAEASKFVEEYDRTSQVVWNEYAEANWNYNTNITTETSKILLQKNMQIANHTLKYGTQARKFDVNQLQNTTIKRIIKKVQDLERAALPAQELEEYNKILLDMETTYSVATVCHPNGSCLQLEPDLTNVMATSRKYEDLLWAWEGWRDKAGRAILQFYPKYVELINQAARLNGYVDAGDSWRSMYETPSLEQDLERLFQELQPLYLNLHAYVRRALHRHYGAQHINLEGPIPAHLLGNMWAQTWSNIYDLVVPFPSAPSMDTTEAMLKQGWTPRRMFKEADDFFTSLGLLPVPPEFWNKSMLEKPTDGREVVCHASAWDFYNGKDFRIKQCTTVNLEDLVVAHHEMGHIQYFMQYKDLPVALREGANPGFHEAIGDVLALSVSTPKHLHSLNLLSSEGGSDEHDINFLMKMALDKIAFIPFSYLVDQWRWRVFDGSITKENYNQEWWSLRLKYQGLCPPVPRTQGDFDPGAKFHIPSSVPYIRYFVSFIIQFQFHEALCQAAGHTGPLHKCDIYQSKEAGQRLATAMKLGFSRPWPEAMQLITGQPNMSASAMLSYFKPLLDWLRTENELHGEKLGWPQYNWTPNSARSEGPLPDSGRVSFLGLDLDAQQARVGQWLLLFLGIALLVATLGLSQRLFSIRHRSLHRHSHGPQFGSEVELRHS

Some compounds with recorded IC50:
{"compound": "CCCCC(CC(=O)NO)S(=O)(=O)C1CCCCC1 (stereo not drawn)", "IC50": "> 100 µM"}
{"compound": "CCCCC(CC(=O)NO)[S+]([O-])c1ccccc1 (stereo not drawn)", "IC50": "> 100 µM"}

Consider the record given below.
Looking up CCCC[C@@H](CC(=O)NO)S(=O)(=O)c1ccccc1 , I see its IC50 listed as > 100 µM
